Molecular target: T1, Ty3 RT (Ty3 retrotransposon, UniProt Q99315 536-1011)
T1 sequence: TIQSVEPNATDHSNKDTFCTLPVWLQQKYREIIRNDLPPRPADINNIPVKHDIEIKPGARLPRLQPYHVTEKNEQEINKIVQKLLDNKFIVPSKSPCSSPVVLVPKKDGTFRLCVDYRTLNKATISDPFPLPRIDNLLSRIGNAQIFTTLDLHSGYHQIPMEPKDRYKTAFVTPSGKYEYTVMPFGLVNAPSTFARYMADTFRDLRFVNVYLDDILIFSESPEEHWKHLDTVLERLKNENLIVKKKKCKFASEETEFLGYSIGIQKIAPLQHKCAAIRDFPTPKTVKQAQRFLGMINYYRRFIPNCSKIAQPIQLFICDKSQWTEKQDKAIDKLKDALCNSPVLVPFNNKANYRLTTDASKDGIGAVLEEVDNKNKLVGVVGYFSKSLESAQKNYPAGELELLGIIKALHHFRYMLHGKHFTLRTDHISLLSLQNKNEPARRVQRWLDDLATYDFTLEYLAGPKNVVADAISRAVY
Test: primer extension with trap; 6 mM Mg2+; Primer extension: 50 mM Tris-HCl pH 8.0, 80 mM KCl, 6 mM MgCl2, 1 mM DTT, 0.1 mg/ml BSA, room temperature, 1 nM duplex; filter binding: Tris-HCl pH 8.0, 80 mM KCl, 1 mM DTT, without Mg2+ (wt) or 6 mM Mg2+ (E478Q), room temperature, 5 nM hybrid (Table 1 units nM inferred)
Settings: protein: recombinant; label: 5'-32P primer; 41 nt primer on 45 nt template, 5' overhang 4 nt (template)
pKd by entry:
Note on pKd: it is the negative log10 of concentration, concentration in mol/L.

Binder	pKd
MuLV DNA PPT (dsDNA) DNA 1: GCCTGCAGGTCGACTCTAGATAGTCTCCAGAAAAAGGGGGG DNA 2: CATTCCCCCCTTTTTCTGGAGACTATCTAGAGTCGACCTGCAGGC	7.35
HIV DNA PPT (41/45) (dsDNA) DNA 1: GCCTGCAGGTCGACTCTAGACTTTTTAAAAGAAAAGGGGGG DNA 2: CAGTCCCCCCTTTTCTTTTAAAAAGTCTAGAGTCGACCTGCAGGC	7.28

input: I would be grateful if you could share the reported pKd for AMV DNA PPT (dsDNA) DNA 1: GCCTGCAGGTCGACTCTAGAGCTTTTGCATAGGGAGGGGGA DNA 2: CATTTCCCCCTCCCTATGCAAAAGCTCTAGAGTCGACCTGCAGGC .
output: 7.24

input: And then TY3 DNA PPT (dsDNA) DNA 1: GCCTGCAGGTCGACTCTAGAGACAACCCTGAGAGAGAGGAA DNA 2: CATCTTCCTCTCTCTCAGGGTTGTCTCTAGAGTCGACCTGCAGGC , what is it?
output: 7.08

Origin of measurements: paper PMC3407194
